target: Aryl hydrocarbon receptor (Homo sapiens); assay: ATG_Ahr_CIS: Attagene CIS-FACTORIAL HepG2 Assay for human Aryl Hydrocarbon Receptor (Ahr) (AID 2282930); conditions: HepG2 AhR cis-factorial reporter transcription; actives raise or lower the signal
Activity calls are given as the source filed them. Rule for the calls: active = hit-call score of the fitted dose curve at least 0.9, where 1 is the maximum; inactive = score below 0.9.
Select the matching outcome among class 1 (active), class 0 (inactive)

Worked examples follow.
# compound, cat
records = [
    ("O=C(Cl)C(F)(F)C(F)(F)C(F)(F)C(F)(F)C(F)(F)C(F)(F)C(F)(F)C(F)(F)F", "class 0"),
    ("CN(C)Cc1ccccc1O", "class 0"),
    ("CC(C)c1ccccc1N", "class 0"),
    ("[Co]", "class 0"),
    ("Cc1ccc(S(=O)(=O)OCC(F)(F)C(F)(F)C(F)(F)C(F)(F)C(F)(F)C(F)F)cc1", "class 0"),
]

[Q] // outcome(item) with item = O=C(O)C(F)(F)C(F)(F)C(F)(F)C(F)(F)C(F)(F)C(F)(F)C(F)(F)C(F)(F)C(F)(F)C(F)(F)C(F)(F)C(F)(F)F
[A] class 0

[Q] Ok, now O=C(O)C(F)(F)C(F)(F)OC(F)(F)F
[A] class 0

[Q] Query CCCCCCOC(=O)c1ccccc1O next
[A] class 0

[Q] Consider next the compound C=CC(=O)OCC(F)(F)C(F)(F)C(F)(F)C(F)(F)C(F)(F)C(F)(F)C(F)(F)F in the same way.
[A] class 0
